- Test system: pJNK in HCT-116 cells
- Assay Remarks: Phospho-JNK (Thr183/Tyr185) Meso Scale ELISA assay, TNFα-stimulated HCT-116 cells
- Type: cell-based
- Experimental Setup: Homo sapiens, read-out: mean HCT-116 pJNK ELISA IC50 (Col. B)
Measurement Name: IC50

IN: Value wanted: IC50 (pJNK in HCT-116 cells) of entry Nc1ncc(-c2cnn([C@H]3CC[C@H](O)CC3)c2)c2cc(-c3cccn4cncc34)oc12 [Example 365]
OUT: < 100 nM

IN: # get_value(readout= IC50, system= pJNK in HCT-116 cells) for CC(=O)N1CCC(n2cc(-c3cnc(N)c4oc(-c5ccc6c(c5)CCC(=O)N6)cc34)cn2)CC1 [Example 154]
OUT: 1000 to 10000 nM

IN: // fetch pJNK in HCT-116 cells IC50 for Nc1ncc(-c2cc[nH]c2)c2cc(-c3csc4cnccc34)oc12 [Example 376]
OUT: 100 to 1000 nM

IN: Can you look up IC50 on pJNK in HCT-116 cells for CC(=O)N1[C@@H]2CC[C@H]1C[C@H](n1cc(-c3cnc(N)c4oc(-c5csc6cnccc56)cc34)cn1)C2 [Example 325] ?
OUT: < 100 nM

IN: Identify the measured IC50 of CC(=O)N1CCC(n2cc(-c3cnc(N)c4oc(-c5ccc6[nH]nnc6c5)cc34)cn2)CC1 [Example 158] for pJNK in HCT-116 cells.
OUT: > 10000 nM

Values compiled from patent US8378104B2.
